The origin of these recorded values is PubChem BioAssay.

experiment: S. cerevisiae growth modulation with rapamycin, primary screen, strain BY4716, OD600, 96 h (AID 1091); conditions: higher = more signal, called active from +8 up or from −8 down; also: test concentration not given here
Classify as follows. Reported z-score greater than or equal to -0.03: Met. Reported z-score below: Not met.

Examples from the recorded data:
CCOC(=O)NN=C1C[C@@H](O)[C@@H](O)[C@@H]2[C@@H]3C(=O)N(C[C@@H]4CCCO4)C(=O)[C@@H]3CC[C@H]12 | Not met
COC(=O)C1=C(C)N(Cc2ccccc2)C2=C3C(=O)OCC[C@@H]3[C@@](O)(C(=O)OC)C(=O)N2[C@@H]1c1ccccc1 | Not met
COC(=O)CC=C[C@@H](C)[C@@H](C=NOC(C)CN1CCCCc2nc(C)c(C)cc21)OC (stereo not given in full) | Not met
C=CCOCC1CN2[C@@H](CC[C@@H](C)[C@@H]2c2ccc(Br)cc2)C(=O)O1 (stereo not given in full) | Met
CC(C)=NOC(C)CN1CCCc2nc(C)c(C)cc21 (stereo not given) | Met
CCOC(=O)[C@H](CC(C)C)NC(=O)CCC1CC(OC(=O)NCc2ccc3c(c2)OCO3)CC2(CCCC(COC(=O)NCCOC)O2)O1 (stereo not given in full) | Not met
COC(=O)[C@H](C)NC(=O)CCC1CC(OC(=O)NCCc2ccc(F)cc2)CC2(CCCC(COC(=O)NCCc3ccccc3OC)O2)O1 (stereo not given in full) | Met
O=C1C=C[C@@H](O)[C@@H]2[C@@H]3C(=O)N(C4CCCCC4)C(=O)[C@@H]3CC[C@@H]12 | Not met

Hi team, for O=C1C[C@@H](O)[C@@H](O)[C@@H]2[C@@H]3C(=O)N(Cc4ccccc4)C(=O)[C@@H]3CC[C@H]12 , is the recorded z-score at or above -0.03?
Not met

Hi team, for CCOC(=O)NN=C1C[C@@H](O)[C@@H](O)[C@@H]2[C@@H]3C(=O)N(c4ccc(F)cc4F)C(=O)[C@@H]3CC[C@H]12 , is the recorded z-score at or above -0.03?
Not met

Hi team, for C[C@@H](c1ccccc1)N1C(=O)[C@H]2[C@H]3[C@H](O)[C@H](O)CC(=NOC[C@@H](O)COCc4ccco4)[C@H]3CC[C@H]2C1=O , is the recorded z-score at or above -0.03?
Not met

Hi team, for CC(C)[C@@H](OCc1ccccc1)[C@H](C)CON=C1[C@H]2CCn3c(=O)n(-c4ccccc4)c(=O)n3[C@H]2[C@H](O)[C@@H]2O[C@H]12 , is the recorded z-score at or above -0.03?
Not met

* * *

experiment: fission yeast growth modulation, primary screen, strain 972, OD600, 24 h, no modulator (AID 1090);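 also: basal condition with compound alone and no growth modifier present; test concentration not given here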; conditions: S. pombe 972 growth, higher = more signal, called active from +8 up or from −8 down
Classify as follows. Reported z-score greater than or equal to -7: True. Reported z-score below: False.

Examples from the recorded data:
Cc1ccc(C(C)C)n1C(=O)OC(C)(C)C | True
CCN1C(=O)[C@H]2[C@H]3[C@H](O)[C@H](O)CC(=NO[C@@H]4O[C@H](COC(C)=O)[C@@H](OC(C)=O)[C@H](OC(C)=O)[C@H]4OC(C)=O)[C@@H]3CC[C@H]2C1=O | True
C[C@@H]1CC[C@H]2C(=O)OC(CN3C(=O)c4ccccc4C3=O)CN2[C@H]1c1ccc(Br)cc1 (stereo not given in full) | True

As a next step, examine the compound that follows.
Hi team, for C[C@@H]1CC[C@H]2C(=O)O[C@@H](CN=[N+]=[N-])CN2[C@H]1c1ccc(Br)cc1 , is the recorded z-score at or above -7?
False
